- assay.procedure: pKa determination (pKa PRO Analyzer)
- Format: physicochemical
Kindly state pKa for each of the entries shown.

Q: For CC(C)Nc1cc(-c2ccc3cc(C#N)cnn23)ncc1C(=O)NC[C@@H](F)C(C)(C)O [A, reference compound] , what is its reported pKa?
A: 6.1

Q: Next entry: C[C@H](C#N)Nc1cc(-c2ccc3cc(C#N)cnn23)ncc1C(=O)NC[C@@H](F)C(C)(C)O [Compound 3]
A: 4.9

Q: Check CC(C)(O)[C@H](F)CNC(=O)c1cnc(-c2ccc3cc(C#N)cnn23)cc1NCCCC#N [Compound 8] too.
A: 5.9

Q: // query: CC(C)(O)[C@H](F)CNC(=O)c1cnc(-c2ccc3cc(C#N)cnn23)cc1NCC#N [Compound 2]
A: 5.1

Q: Also, CNc1cc(-c2ccc3cc(C#N)cnn23)ncc1C(=O)NC[C@@H](F)C(C)(C)O [Compound 1] please.
A: 6.6

Q: Record: CC(C)(C#N)Nc1cc(-c2ccc3cc(C#N)cnn23)ncc1C(=O)NC[C@@H](F)C(C)(C)O [Compound 9]
A: 4.8

* * *

- target.under.test: IRAK4 enzyme (Homo sapiens (Human), UniProt Q9NWZ3)
- Sequence (Q9NWZ3 whole entry): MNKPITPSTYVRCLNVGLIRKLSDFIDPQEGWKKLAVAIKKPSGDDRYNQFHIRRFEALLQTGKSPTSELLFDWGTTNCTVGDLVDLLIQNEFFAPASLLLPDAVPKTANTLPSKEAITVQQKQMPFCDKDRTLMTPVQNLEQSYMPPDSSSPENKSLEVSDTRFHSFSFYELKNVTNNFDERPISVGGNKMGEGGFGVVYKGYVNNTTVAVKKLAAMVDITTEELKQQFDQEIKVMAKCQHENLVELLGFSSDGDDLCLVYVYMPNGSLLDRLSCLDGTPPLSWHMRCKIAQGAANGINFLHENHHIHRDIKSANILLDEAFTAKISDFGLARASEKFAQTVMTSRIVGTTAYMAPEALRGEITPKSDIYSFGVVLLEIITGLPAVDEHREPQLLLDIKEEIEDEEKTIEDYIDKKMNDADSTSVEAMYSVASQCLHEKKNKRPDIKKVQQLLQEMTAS
quantity.kind: IC50 (nM)
Reply with just the number (in nM).

Q: Please provide the recorded IC50 for `CC[C@@H](C#N)Nc1cc(-c2ccc3cc(C#N)cnn23)ncc1C(=O)NC[C@@H](F)C(C)(C)O` , tested on IRAK4 enzyme (Homo sapiens (Human), UniProt Q9NWZ3).
A: 5
